run description: In vivo pharmacokinetics after a single dose, monkey
particulars: male, plasma; Cynomolgus monkey, 3 mg/kg PO
measured parameter: bioavailability
State the value, then name its unit.

Recorded result, CNC(=O)N1CCn2c(C3CCOCC3)nc(-c3cccc4nc(-c5cnc(C)s5)c(C(F)F)cc34)c2C1 [Compound 1] , bioavailability: 28.2%

###

run description: In vivo pharmacokinetics after a single dose, rat
particulars: male, plasma; Sprague-Dawley rat, 3 mg/kg PO
measured parameter: Cmax (nM)
State just the number; it will be interpreted in nM.

Per the record, CNC(=O)N1CCn2c(C3CCOCC3)nc(-c3cccc4nc(-c5cnc(C)s5)c(C(F)F)cc34)c2C1 has Cmax of 1350
